Test system: HeLa
Experiment: Tested for antirhinoviral activity of compound against HRV 2 infected H1HeLa cells; Cytotoxicity at > 10 uM
Type: functional, cell-based
Details: Homo sapiens
pEC50: −log10 of the molar value.
measured_endpoint: pEC50

>>> endpoint_value("CCOC(=O)/C=C/[C@H](C[C@@H]1CCNC1=O)NC(=O)[C@@H]1CCc2ccc(NC(=O)c3cc(C)on3)c(=O)n21")
7.43

====

System: HeLa
Assay: Tested for antirhinoviral activity of compound against HRV 9 infected H1HeLa cells
Format: functional, cell-based
Settings: Homo sapiens
pEC50: −log10 of the molar value.
measured_endpoint: pEC50

>>> endpoint_value("CCOC(=O)/C=C/[C@H](C[C@@H]1CCNC1=O)NC(=O)[C@@H]1CCc2ccc(NC(=O)c3cc(C)on3)c(=O)n21")
6.92
